// data source = ChEMBL document CHEMBL3085760

Measurement target: UniProt:Q16853
Sequence (whole entry): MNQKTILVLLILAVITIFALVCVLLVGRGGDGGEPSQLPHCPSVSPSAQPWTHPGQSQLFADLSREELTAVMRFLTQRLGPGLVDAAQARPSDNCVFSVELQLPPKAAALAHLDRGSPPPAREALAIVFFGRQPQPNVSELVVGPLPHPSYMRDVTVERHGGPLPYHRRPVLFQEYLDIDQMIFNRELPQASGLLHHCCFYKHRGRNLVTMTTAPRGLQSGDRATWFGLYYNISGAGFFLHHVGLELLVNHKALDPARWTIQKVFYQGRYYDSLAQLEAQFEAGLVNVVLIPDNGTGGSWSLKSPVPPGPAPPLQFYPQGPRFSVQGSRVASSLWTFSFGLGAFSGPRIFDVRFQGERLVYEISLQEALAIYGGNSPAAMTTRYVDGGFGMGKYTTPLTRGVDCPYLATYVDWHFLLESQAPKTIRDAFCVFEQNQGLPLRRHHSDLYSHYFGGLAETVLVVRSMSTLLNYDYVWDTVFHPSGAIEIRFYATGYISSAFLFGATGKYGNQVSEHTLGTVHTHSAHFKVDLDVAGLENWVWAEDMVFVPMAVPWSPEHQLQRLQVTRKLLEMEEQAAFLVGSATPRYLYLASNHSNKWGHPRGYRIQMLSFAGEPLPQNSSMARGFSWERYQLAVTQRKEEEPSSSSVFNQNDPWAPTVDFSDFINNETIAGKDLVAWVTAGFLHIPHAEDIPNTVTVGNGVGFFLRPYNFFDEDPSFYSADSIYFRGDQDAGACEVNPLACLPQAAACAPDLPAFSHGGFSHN
Assay protocol: Activity at recombinant human VAP-1 assessed as hydrogen peroxide generation rate per min/mg preincubated for 30 mins by Amplex Red assay relative to control
Parameter measured: fold change (FC)

Example entries begin here.
INSERT INTO assay_data (substance_smiles, test_value) VALUES
  ('CN(CCCCCCCCCCCCN)Cc1ccccc1', 0.73),
  ('NCCCCCCCCCCCCNCc1ccccc1', 1.88),
  ('NCCCCCCCCCCCCNCc1cccs1', 1.77);

1. NCCCCCCCCNCCCNCc1cccs1
2. NCCCOCCCCOCCCNCc1cccs1
For this pair, 1 and 2 , which shows a numerically higher fold change (FC)? Use the label to indicate which entry you chose.
2
(2: 0.71, 1: 0.38)

----------
Measurement target: UniProt:Q16853
Assay protocol: Ratio of relative Vmax to Km for recombinant human VAP-1 assessed as hydrogen peroxide generation rate using benzylamine as substrate at 200 uM preincubated for 30 mins by Amplex Red assay
Parameter measured: fold change (FC)

A. c1ccc(CNCCCCCCCCCCCCNCc2ccccc2)cc1
B. NCCCNCCCCNCCCNCc1cccs1
C. NCCCNCCCCNCCCNCc1ccc2ccccc2c1
Order by fold change (FC), smallest first, the items presented above. Answer by listing the labels in the order asked for.
A, B, C

1. CN(CCCCCCCCCCCCN=C=S)Cc1ccccc1
2. NCCCNCCCCNCCCN
Would you kindly point out which of 1 and 2 has the smaller fold change (FC) figure? Let me know the label of the one you choose.
1
(1: 0.66, 2: 0.96)

----------
Measurement target: Amine oxidase [copper-containing] 3 (Homo sapiens) (UniProt Q16853)
Assay protocol: Ratio of relative Vmax to Km for recombinant human VAP-1 assessed as hydrogen peroxide generation rate preincubated for 30 mins by Amplex Red assay relative to control
Parameter measured: fold change (FC)

Worked cases, fold change (FC) given:
INSERT INTO results (substance_smiles, test_value) VALUES
  ('CN(CCCCCCCCCCCCN)Cc1ccccc1', 30),
  ('NCCCCCCCCNCCCNCc1cccs1', 0.09);

P. NCCCOCCCCOCCCNCc1cccs1
Q. NCCCCCCCCCCCCNCc1cccs1
R. NCCCCCCCCCCCCNCc1ccccc1
Hello, I need these entries ordered by fold change (FC), highest reading first. Thanks! Answer format: the labels, ordered as requested.
R, Q, P
(R: 80, Q: 35, P: 0.87)
